Items are presented alongside their recorded MIC.
Test system: Escherichia coli ATCC 25922
ASSAY ENDPOINT: MIC (µM)

COMPOUND	COMPARATOR	EXPERIMENTAL VALUE
CC[C@H](C)[C@H](NC(=O)[C@@H](N)Cc1ccccc1)C(=O)N[C@@H](CC(C)C)C(=O)N[C@@H](CCCCN)C(=O)N[C@@H](CCCN=C(N)N)C(=O)N[C@@H](CO)C(=O)N[C@@H](Cc1ccc(O)cc1)C(=O)N1CCC[C@H]1C(=O)N[C@@H](CCC(N)=O)C(=O)N[C@@H](Cc1ccc(O)cc1)C(=O)N[C@@H](Cc1ccc(O)cc1)C(N)=O [FILKRSYPQYY]	=	406
CC[C@H](C)[C@H](NC(=O)[C@H](CCCCN)NC(=O)[C@H](CCCCN)NC(=O)[C@H](C)NC(=O)[C@@H](NC(=O)[C@H](CCCCN)NC(=O)[C@H](CC(C)C)NC(=O)[C@H](CC(C)C)NC(=O)[C@H](CCCCN)NC(=O)[C@H](CCCCN)NC(=O)[C@H](CC(C)C)NC(=O)[C@H](CC(N)=O)NC(=O)[C@@H](N)CC(C)C)C(C)C)C(=O)N[C@@H](CC(C)C)C(N)=O [LNLKKLLKVAKKIL]	=	8
CC(C)C[C@H](NC(=O)[C@H](CC(=O)O)NC(=O)[C@H](CC(N)=O)NC(=O)[C@H](C)NC(=O)[C@H](CC(N)=O)NC(=O)[C@H](CC(=O)O)NC(=O)[C@@H](N)C(C)C)C(=O)N[C@@H](CC(C)C)C(=O)N[C@@H](CO)C(=O)N[C@@H](CCCCN)C(=O)N[C@H](C(=O)N[C@@H](CCCCN)C(=O)N[C@@H](CCCCN)C(=O)N[C@@H](CC(=O)O)C(=O)N[C@@H](CCCCN)C(=O)N[C@@H](CO)C(=O)N[C@@H](CC(=O)O)C(=O)O)C(C)C [VDNANDLLSKVKKDKSD]	=	4.39
CC[C@H](C)[C@H](NC(=O)[C@H](CCCN=C(N)N)NC(=O)[C@H](CCCN=C(N)N)NC(=O)[C@H](C)NC(=O)[C@@H](NC(=O)[C@H](C)NC(=O)[C@H](CC(C)C)NC(=O)[C@H](CC(C)C)NC(=O)[C@H](C)NC(=O)[C@H](CCCN=C(N)N)NC(=O)[C@H](CC(C)C)NC(=O)[C@H](CC(N)=O)NC(=O)[C@@H](N)CC(C)C)C(C)C)C(=O)N[C@@H](CC(C)C)C(N)=O [LNLRALLAVARRIL]	=	4
CC[C@H](C)[C@H](NC(=O)CN)C(=O)N[C@@H](CC(C)C)C(=O)N[C@@H](CCCCN)C(=O)N[C@H](C(=O)N[C@H](C(=O)N[C@@H](CCCCN)C(=O)N[C@@H](CO)C(=O)N[C@H](C(=O)N[C@@H](C)C(=O)N[C@@H](CO)C(=O)N[C@@H](CCCCN)C(=O)N[C@@H](CC(C)C)C(=O)N[C@@H](CCCCN)C(=O)N[C@@H](CCCN=C(N)N)C(=O)N[C@@H](CCCCN)C(=O)N[C@@H](C)C(=O)N[C@@H](CCCCN)C(=O)O)[C@@H](C)CC)[C@@H](C)CC)[C@@H](C)O [GILKTIKSIASKLKRKAK]	=	1.56
CC(C)C[C@H](NC(=O)[C@H](CC(C)C)NC(=O)[C@H](CCC(N)=O)NC(=O)[C@H](CCC(=O)O)NC(=O)[C@H](CC(C)C)NC(=O)[C@@H](N)Cc1ccc(O)cc1)C(=O)N[C@@H](CCCN=C(N)N)C(=O)O [YLEQLLR]	=	40.1
CC(C)C[C@H](NC(=O)[C@@H]1CCCN1C(=O)[C@H](CCCCN)NC(=O)[C@H](CC(C)C)NC(=O)[C@H](CC(C)C)NC(=O)[C@@H]1CCCN1C(=O)[C@H](CCCCN)NC(=O)[C@H](CC(C)C)NC(=O)[C@H](CC(C)C)NC(=O)[C@@H]1CCCN1C(=O)[C@H](CCCCN)NC(=O)[C@H](CC(C)C)NC(=O)[C@H](CC(C)C)NC(=O)[C@@H]1CCCN1C(=O)[C@H](CCCCN)NC(=O)[C@H](CC(C)C)NC(=O)[C@H](CC(C)C)NC(=O)[C@@H]1CCCN1C(=O)[C@H](CCCCN)NC(=O)[C@@H](N)CC(C)C)C(N)=O [LKPLLKPLLKPLLKPLLKPL]	=	2
NC(=O)[C@H](Cc1c[nH]c2ccccc12)NC(=O)[C@H](Cc1c[nH]c2ccccc12)NC(=O)[C@H](CCCN=C(N)N)NC(=O)[C@H](CCCN=C(N)N)NC(=O)[C@H](Cc1c[nH]c2ccccc12)NC(=O)[C@H](Cc1c[nH]c2ccccc12)NC(=O)[C@H](CCCN=C(N)N)NC(=O)[C@H](Cc1c[nH]c2ccccc12)NC(=O)[C@H](Cc1c[nH]c2ccccc12)NC(=O)[C@@H](N)CCCN=C(N)N [RWWRWWRRWW]	>	51.7
CC[C@H](C)[C@H](NC(=O)CNC(=O)[C@H](CO)NC(=O)[C@@H](NC(=O)[C@H](CC(C)C)NC(=O)[C@H](CCCN=C(N)N)NC(=O)CNC(=O)[C@@H](NC(=O)[C@@H](NC(=O)[C@@H]1CCCN1C(=O)[C@H](CC(C)C)NC(=O)[C@@H](N)Cc1ccccc1)[C@@H](C)CC)C(C)C)[C@@H](C)CC)C(=O)N[C@@H](CC(C)C)C(N)=O [FLPIVGRLISGIL]	>	50
CC(C)[C@H](NC(=O)[C@H](Cc1ccc(O)cc1)NC(=O)[C@H](CO)NC(=O)[C@H](CCCCN)NC(=O)[C@@H](N)Cc1c[nH]c2ccccc12)C(=O)N[C@@H](CCCN=C(N)N)C(=O)N[C@@H](CCCN=C(N)N)C(=O)N[C@@H](Cc1c[nH]c2ccccc12)C(=O)N[C@@H](CCCN=C(N)N)C(=O)N[C@@H](CO)C(=O)N[C@@H](CCCN=C(N)N)C(=O)N[C@@H](Cc1ccc(O)cc1)C(N)=O [WKSYVRRWRSRY]	=	16
